assay: Photophysical property of the compound assessed as fluorescence quantum yield; assay type: physicochemical
Quick list: Activity per entry.
Reply with the value as a number alone.

{"Compound": "CCCCCC[n+]1ccc(/C(C#N)=C2/C=C(C(C)OC(=O)CCCc3ccccc3)c3ccc(N(CC)CC)cc3O2)cc1.[Br-] (centres undefined)", "Activity": 0.23}

Entry CCCCCC[n+]1ccc(/C(C#N)=C2/C=C(C(C)OC(=O)CCCc3ccc(N(CCCl)CCCl)cc3)c3ccc(N(CC)CC)cc3O2)cc1.[Cl-] (centres undefined) has what Activity?
0.07

Also CCN(CC)c1ccc2c(c1)O/C(=C(/C#N)c1cc[n+](CCC[N+](C)(C)C)cc1)C=C2C(C)OC(=O)CCCc1ccc(N(CCCl)CCCl)cc1.[Cl-].[Cl-] (centres undefined) , if possible.
0.09

Also CCCCCC[n+]1ccc(/C(C#N)=C2/C=C(C(C)O)c3ccc(N(CC)CC)cc3O2)cc1.[Cl-] (centres undefined) , if possible.
0.26

====

assay: Phototoxic index, ratio of IC50 for cytotoxicity against human HeLa cells assessed as reduction in cell viability incubated for 2 hrs under dark condition by MTT assay to IC50 for photocytotoxicity in human HeLa cells assessed as reduction in cell viability irradiated with 550 nm 4 mW/cm^-2 green-yellow […] and measured after 48 hrs by MTT assay; assay type: toxicity, cell-based; settings: read-out: Ratio IC50
Property measured: selectivity ratio at 48 h
Reply with the value as a number alone.

{"Molecule": "CCCCCC[n+]1ccc(/C(C#N)=C2/C=C(C(C)O)c3ccc(N(CC)CC)cc3O2)cc1.[Cl-] (centres undefined)", "Val": 40}
{"Molecule": "CCCCCC[n+]1ccc(/C(C#N)=C2/C=C(C(C)OC(=O)CCCc3ccccc3)c3ccc(N(CC)CC)cc3O2)cc1.[Br-] (centres undefined)", "Val": 131}
{"Molecule": "CCCCCC[n+]1ccc(/C(C#N)=C2/C=C(C(C)OC(=O)CCCc3ccc(N(CCCl)CCCl)cc3)c3ccc(N(CC)CC)cc3O2)cc1.[Cl-] (centres undefined)", "Val": 40}

Entry CCN(CC)c1ccc2c(c1)O/C(=C(/C#N)c1cc[n+](CCC[N+](C)(C)C)cc1)C=C2C(C)OC(=O)CCCc1ccc(N(CCCl)CCCl)cc1.[Cl-].[Cl-] (centres undefined) has what selectivity ratio at 48 h?
3.7

====

Quick list: Activity per entry.
test: Photochemical property of compound assessed as uncaging quantum yields; type: physicochemical

{"Compound": "CCN(CC)c1ccc2c(c1)O/C(=C(/C#N)c1cc[n+](CCC[N+](C)(C)C)cc1)C=C2C(C)OC(=O)CCCc1ccc(N(CCCl)CCCl)cc1.[Cl-].[Cl-] (stereo not drawn)", "Property measured": "Activity", "Val": "1.07e-05"}
{"Compound": "CCCCCC[n+]1ccc(/C(C#N)=C2/C=C(C(C)OC(=O)CCCc3ccc(N(CCCl)CCCl)cc3)c3ccc(N(CC)CC)cc3O2)cc1.[Cl-] (stereo not drawn)", "Property measured": "Activity", "Val": "1.3e-05"}

// below: Activity requested for another compound
Entry CCCCCC[n+]1ccc(/C(C#N)=C2/C=C(C(C)OC(=O)CCCc3ccccc3)c3ccc(N(CC)CC)cc3O2)cc1.[Br-] (stereo not drawn) has what Activity?
3.89e-05

====

system: HeLa; assay: Cytotoxicity against human HeLa cells assessed as reduction in cell viability at 100 uM incubated for 2 hrs under dark condition by MTT assay; assay type: functional, cell-based
Property measured: IC50 (µM)
Report only the number, with the unit µM understood.

{"Compound": "CCCCCC[n+]1ccc(/C(C#N)=C2/C=C(C(C)OC(=O)CCCc3ccc(N(CCCl)CCCl)cc3)c3ccc(N(CC)CC)cc3O2)cc1.[Cl-] (stereo unspecified)", "IC50 / µM": 3.76}
{"Compound": "CCCCCC[n+]1ccc(/C(C#N)=C2/C=C(C(C)O)c3ccc(N(CC)CC)cc3O2)cc1.[Cl-] (stereo unspecified)", "IC50 / µM": 27.2}
{"Compound": "CCCCCC[n+]1ccc(/C(C#N)=C2/C=C(C(C)OC(=O)CCCc3ccccc3)c3ccc(N(CC)CC)cc3O2)cc1.[Br-] (stereo unspecified)", "IC50 / µM": 3.54}

// below: IC50 requested for another compound
Entry CCN(CC)c1ccc2c(c1)O/C(=C(/C#N)c1cc[n+](CCC[N+](C)(C)C)cc1)C=C2C(C)OC(=O)CCCc1ccc(N(CCCl)CCCl)cc1.[Cl-].[Cl-] (stereo unspecified) has what IC50?
41
